Source of measurements: PubChem BioAssay AID1159580

Reported normalized growth is given for each of the following compounds.
- experiment_notes: chemical genetic growth profiling, strain panel (AID 1159580);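 further: tested at 20 µM; growth read once vehicle control cultures reached saturation at 30 °C; 1 = growth at the plate median or of vehicle wells; lower values mean less growth of the strain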
- study_conditions: S. cerevisiae deletion strains, growth OD, locus YKL009W, strain mrt4, stronger effect = lower value
Among all 5,500 compounds or so, about 2,000 (36%) were called active. Inconclusive results (about 18%) are left out. This is one part of the list.

compound	normalized growth
O=C(Cn1ccnc1[N+](=O)[O-])NCCO	1.03
CC(C)(C)CC(C)(C)c1ccc(O)c(Cc2ccc(Cl)cc2Cl)c1	1.01
CC1(C)C2(Cl)C(Cl)C(Cl)C(Cl)(C(Cl)Cl)C1(Cl)C2Cl (stereo not drawn)	0.971
Cc1cccc(C)c1NC1=NCCCS1	0.968
CC[N+](CC)(CC)CCOc1cccc(OCC[N+](CC)(CC)CC)c1OCC[N+](CC)(CC)CC	0.99
CC(=O)Oc1c(C)cccc1C(=O)O	0.975
Cc1ccc(Cl)c(Nc2ccccc2C(=O)O)c1Cl	0.97
C=C1C(C)C2C(Cc3ccccc3)NC(=O)C23OC(=O)/C=C/C(O)CCCC(C)C/C=C/C3C1O (stereo not drawn)	1.01
CC1C[C@H]2CC(=O)[C@H]3CCCN4CCC[C@H]2[C@]34C1 (stereo partly drawn)	1.03
O=C1[C@H](CCC(O)c2ccc(F)cc2)[C@@H](c2ccc(O)cc2)N1c1ccc(F)cc1 (stereo partly drawn)	0.944
O=S1OCC2C(CO1)C1(Cl)C(Cl)=C(Cl)C2(Cl)C1(Cl)Cl (stereo not drawn)	0.947
C[C@@H]1C(=O)OC2[C@H](O)C34[C@@H]5OC(=O)[C@@]3(O[C@@H]3OC(=O)[C@H](O)[C@@]34[C@H](C(C)(C)C)[C@H]5O)[C@]21O (stereo partly drawn)	1.02
Oc1ccc(Cl)cc1Cc1cc(Cl)ccc1O	0.092
Cn1c(=O)c2[nH]cnc2n(C)c1=O	0.98
O=C(O)c1cc2cc(Cc3cccnc3)ccc2o1	0.983
CC1(C)C2CC(=O)[C@]3(C)C(CC[C@@]4(C)[C@H](c5ccoc5)OC(=O)[C@H]5O[C@]543)[C@@]2(C)C=C[C@@H]1O (stereo partly drawn)	0.988
O=C1NC(=O)C(=O)C(=O)N1	0.992
C=CCSCC1Nc2cc(Cl)c(S(N)(=O)=O)cc2S(=O)(=O)N1 (stereo not drawn)	1.02
Oc1ccc(Cl)cc1	0.972
Clc1cccc(Cl)c1NC1=NCCN1	1.02
CC(C)NC[C@H](O)COc1cccc2ccccc12	1.03
CCC(C)c1cnc(CC(C)C)c(=O)n1O (stereo not drawn)	0.936
Nc1nc2ncc(=O)[nH]c2c(=O)[nH]1	0.973

###

Reported normalized growth is given for each of the following compounds.
- experiment_notes: chemical genetic growth profiling, strain panel (AID 1159580)
- study_conditions: S. cerevisiae deletion strains, growth OD, locus YAL026C, strain drs2, stronger effect = lower value
In all, about 5,500 compounds went through this assay and about 2,000 (36%) were called active. Not shown: some 18% with an inconclusive outcome. The list shows a part of the results.

chemical_string	normalized growth
O=C1OC(c2ccc(O)cc2)(c2ccc(O)cc2)c2ccccc21	0.978
Oc1ccc(Cl)cc1Cc1cc(Cl)ccc1O	0.0747
CCOC(=O)Nc1nc2ccccc2[nH]1	0.977
CC(C)(C)CC(C)(C)c1ccc(O)c(Cc2ccc(Cl)cc2Cl)c1	1.03
Oc1ccc(Cl)cc1	1.03
CC(C)NNC(=O)c1ccncc1	1.03
OCc1ccccc1O	1.02

###

- experiment_notes: chemical genetic growth profiling, strain panel (AID 1159580);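 further: tested at 20 µM; growth read once vehicle control cultures reached saturation at 30 °C; 1 = growth at the plate median or of vehicle wells; lower values mean less growth of the strain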
- study_conditions: S. cerevisiae deletion strains, growth OD, locus YOL147C, strain pex11, stronger effect = lower value
Out of some 5,500 compounds screened, about 2,000 (36%) were called active. About 18% were inconclusive and are not listed. The list shows a part of the results.

compound	normalized growth
CCCCCCOc1ccccc1C(N)=O	0.243
CCCCOC(=O)c1ccccc1C(=O)OCCCC	0.976
C[C@@H]1C(=O)OC2[C@H](O)C34[C@@H]5OC(=O)[C@@]3(O[C@@H]3OC(=O)[C@H](O)[C@@]34[C@H](C(C)(C)C)[C@H]5O)[C@]21O (stereo partly specified)	1.02
CCCCN(CCCC)CCCOC(=O)c1ccc(N)cc1	0.989
NC[C@@H]1CC[C@@H](N)[C@@H](O[C@H]2[C@H](O)[C@@H](O[C@H]3O[C@H](CO)[C@@H](O)[C@H](N)[C@H]3O)[C@H](N)C[C@@H]2N)O1	1.01
CCN(CC)C(=O)c1cccc(C)c1	0.998
CCCCOC(=O)c1ccc(N)cc1	0.937
NC(CO)C(=O)NNCc1ccc(O)c(O)c1O (stereo unspecified)	0.98
CCCCNc1ccc(C(=O)OCCN(C)C)cc1	1.02
COC(=O)C(C)c1ccc(C(=O)c2cccs2)cc1 (stereo unspecified)	0.97
CC1(C)O[C@H]2[C@H](O)C[C@](O)(C(N)=O)C[C@H]2O1	1.01

###

Reported normalized growth is given for each of the following compounds.
- experiment_notes: chemical genetic growth profiling, strain panel (AID 1159580);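 further: tested at 20 µM; growth read once vehicle control cultures reached saturation at 30 °C; 1 = growth at the plate median or of vehicle wells; lower values mean less growth of the strain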
- study_conditions: S. cerevisiae deletion strains, growth OD, locus YJL168C, strain set2, stronger effect = lower value
Screen size: about 5,500 compounds; about 2,000 (36%) were called active. Not shown: some 18% with an inconclusive outcome. Some of the results follow.
measure_name: normalized growth

compound	test_result
CC(=O)Oc1c(C)cccc1C(=O)O	1.01 (inactive)
C[C@@H]1C(=O)OC2[C@H](O)C34[C@@H]5OC(=O)[C@@]3(O[C@@H]3OC(=O)[C@H](O)[C@@]34[C@H](C(C)(C)C)[C@H]5O)[C@]21O (some centres not stated)	1.01 (inactive)
C#CCCCCCCCCCCCC(O)CC(O)CO (configuration not stated)	1.01 (inactive)
CC(=O)OCC(OC(C)=O)C(OC(C)=O)C(OC(C)=O)C(OC(C)=O)C(COC(C)=O)OC(C)=O (configuration not stated)	0.98 (inactive)
C=C1CCC(=O)C(C)CCC2C1CC2(C)C (configuration not stated)	1.01 (inactive)
COC(=O)C[C@H]1C(C)(C)C(=O)[C@@H]2CC3=C(CC[C@]4(C)C3=CC(=O)O[C@H]4c3ccoc3)[C@@]1(C)C2=O	1.02 (inactive)
Cc1c(Cl)cccc1Nc1ccccc1C(=O)O	0.797 (active)
C=C1CCC2C(CC2(C)C)C(=C)CC/C1=N\O (configuration not stated)	0.998 (inactive)
Cc1ccc(Cl)c(Nc2ccccc2C(=O)O)c1Cl	0.892 (active)
COC(=O)C1=CCCN(C)C1	1 (inactive)
CC(=O)OCC(COC(C)=O)OC(C)=O	1.01 (inactive)
C#CCCCCCCCCCCCC(O)CC(O)COC(C)=O (configuration not stated)	0.966 (inactive)

###

- experiment_notes: chemical genetic growth profiling, strain panel (AID 1159580);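 further: tested at 20 µM; growth read once vehicle control cultures reached saturation at 30 °C; 1 = growth at the plate median or of vehicle wells; lower values mean less growth of the strain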
- study_conditions: S. cerevisiae deletion strains, growth OD, locus YCL011C, strain gbp2, stronger effect = lower value
The whole screen tested about 5,500 compounds, of which about 2,000 (36%) were called active. Not shown: some 18% with an inconclusive outcome. Some of the results follow.
Reported normalized growth is given for each of the following compounds.

compound	normalized growth
CCCC(=O)O[C@]1(C(=O)CO)CCC2[C@@H]3CCC4=CC(=O)CC[C@]4(C)C3[C@@H](O)C[C@@]21C (stereo not given in full)	1.01
CC(=O)N[C@@H](CS)C(=O)O	0.997
CC(C)(Oc1ccc(C2CC2(Cl)Cl)cc1)C(=O)O (stereo not given)	1.01
Cc1cc(-c2ccccc2)nnc1NCCN1CCOCC1	0.983
COC(=O)C[C@H]1C(C)(C)C(=O)[C@@H]2CC3=C(CC[C@]4(C)C3=CC(=O)O[C@H]4c3ccoc3)[C@@]1(C)C2=O	0.953
CC(C)C(C)/C=C/C(C)C1CCC2C3=CC=C4CC(O)CCC4(C)C3CCC21C (stereo not given)	0.974
Nc1nc2ncc(=O)[nH]c2c(=O)[nH]1	0.989
OC(Cn1cncn1)(Cn1cncn1)c1ccc(F)cc1F	1.01
COC(=O)[C@@H]1OC(=O)[C@H]2O[C@@]23[C@@]1(C)CCC1[C@@]2(C)CCC(=O)C(C)(C)C2C[C@@H](OC(C)=O)[C@]13C (stereo not given in full)	0.998
CO[C@@]1(NC(=O)CSCC#N)C(=O)N2C(C(=O)O)=C(CSc3nnnn3C)CSC21 (stereo not given in full)	0.993
CC(C)C(C)/C=C/C(C)[C@H]1CCC2C3=CCC4CC(=O)CC[C@]4(C)C3CC[C@@]21C (stereo not given in full)	1.01
Cc1c(S(=O)(=O)O)oc2c1C(=O)C(=O)c1c-2ccc2c1CCCC2(C)C	0.861
C[C@H]1CC[C@@H](C(C)(C)O)CC2=C1CC[C@@H]2C	0.982
Cn1c(=O)c2[nH]cnc2n(C)c1=O	1.02
COc1ccc2c(c1)O[C@H]1c3ccc(OC)cc3OC[C@@H]21	1.02
C[N+]1(C)C2CC(OC(=O)[C@@H](CO)c3ccccc3)CC1C1OC12 (stereo not given in full)	0.923
CC(C)NNC(=O)c1ccncc1	1.02
C=C1CCC(C2CC(=O)OC2=O)C(=O)CCC2C1CC2(C)C (stereo not given)	1
O=C(Cn1ccnc1[N+](=O)[O-])NCCO	1.01
C=C1CCC2C(CC2(C)C)C(=C)CC/C1=N\O (stereo not given)	0.997
O=C1OC(c2ccc(O)cc2)(c2ccc(O)cc2)c2ccccc21	0.968
COc1c(OC)c2occc2c2oc(=O)ccc12	0.979
COC(=O)C(C)c1ccc(C(=O)c2cccs2)cc1 (stereo not given)	1
COc1cc2occ(-c3ccccc3)c(=O)c2c(OC)c1C	0.973
OCc1ccccc1O	1.03
CCN(CC)C(=O)c1cccc(C)c1	1.02
CCCCCCCCCCCCCCCC(=O)OC1C(SC)OC(C(NC(=O)C2CC(CCC)CN2C)C(C)Cl)C(O)C1O (stereo not given)	0.978
Cc1ccc(C)c(OCCCC(C)(C)C(=O)O)c1	0.978
NC(N)=NS(=O)(=O)c1ccc(N)cc1	0.981
CC(C)NCC(O)c1cc(O)cc(O)c1 (stereo not given)	0.982
COc1ccc2c(c1OC)C(=O)OC2[C@H]1c2c(cc3c(c2OC)OCO3)CCN1C (stereo not given in full)	1.02
COc1ccc(CCN2CCC(Nc3nc4ccccc4n3Cc3ccc(F)cc3)CC2)cc1	0.935
COc1c2ccoc2c(OC)c2oc(=O)ccc12	0.934
CC(=O)OC1CCC2(C)C(=CC=C3C2CCC2(C)C3CCC2C(C)/C=C/C(C)C(C)C)C1(C)C (stereo not given)	1.03
CN1C(C(=O)Nc2ccccn2)=C(O)c2ccccc2S1(=O)=O	0.956
Cc1cc(NC(=O)C2=C(O)c3ccccc3S(=O)(=O)N2C)no1	0.982
CCOC(=O)Nc1nc2ccccc2[nH]1	0.979
COc1ccc(-c2coc3cc(OC)cc(OC)c3c2=O)cc1	0.979
CCOC(=O)[C@H](CCc1ccccc1)N[C@@H](C)C(=O)N1[C@H](C(=O)O)C[C@@H]2CCC[C@@H]21	0.981
O=S1OCC2C(CO1)C1(Cl)C(Cl)=C(Cl)C2(Cl)C1(Cl)Cl (stereo not given)	0.98
O=C(O)CN(CC(=O)O)Cc1cc2c(-c3ccccc3C(=O)O)c3cc(CN(CC(=O)O)CC(=O)O)c(=O)cc-3oc2cc1O	0.962
Oc1ccc(Cl)cc1	1.01
O=C1C=C2C=C[C@@H]3C[C@@]2(O1)[C@H]1CCCCN31	1.01
C=CCSCC1Nc2cc(Cl)c(S(N)(=O)=O)cc2S(=O)(=O)N1 (stereo not given)	1
CC(C(=O)O)c1ccc(C(=O)c2cccs2)cc1 (stereo not given)	1.01
